Test system: platelet aggregation
Assay: Activity of inhibiting platelet aggregation (collagen-induced)
Format: cell-based, male Hartley guinea pig
Settings: Cavia porcellus, Platelet, 2 min, read-out: ED50 (inhibition of platelet aggregation)
recorded-endpoint: IC50 (µM)

compound="CC(=O)Oc1ccccc1C(=O)O [Aspirin, reference compound]" recorded_endpoint=IC50 reported_value=15.8

###

System: stomach mucosal membrane
Assay: Ulcerogenic activity: gastric ulceration
Format: in vivo, male Wistar rats
Conditions: 30 mg/kg, p.o.; 4 h
recorded-endpoint: Gastric ulceration: bleeding at the mucosal membrane

compound="Cc1ccc(-c2nccc3c(CC(=O)O)cccc23)cc1 [Compound E]" reported_value=0/5
compound="COc1ccc(-c2nccc3c(CC(=O)O)cccc23)cc1 [G]" reported_value=0/5
compound="O=C(O)Cc1cccc2c(C3CCCCC3)nccc12 [Compound L, 1-cyclohexylisoquinoline-5-acetic acid]" reported_value=3/5
compound="O=C(O)Cc1cccc2c(-c3ccccc3)nccc12 [H, 1-phenylisoquinoline-5-acetic acid]" reported_value=4/20
compound="O=C(O)Cc1cccc2c(-c3ccc(Br)cc3)nccc12 [B]" reported_value=2/5
compound="CN(C)c1ccc(-c2nccc3c(CC(=O)O)cccc23)cc1 [D]" reported_value=3/6
compound="CC(C(=O)O)c1cccc2c(-c3ccc(Cl)cc3)nccc12 (centres unmarked) [F]" reported_value=2/5
compound="O=C(O)Cc1cccc2c(-c3ccc(Cl)cc3)nccc12 [A]" reported_value=0/5

###

Target: microsomes of bovine seminal vesicle (a prostaglandin synthesizing enzyme) (Bos taurus, UniProt O62664)
Construct: a microsome fraction prepared from bovine seminal vesicle; from tissue; host or cells: bovine seminal vesicle, lyophilized microsome fraction
Sequence (O62664 25-600): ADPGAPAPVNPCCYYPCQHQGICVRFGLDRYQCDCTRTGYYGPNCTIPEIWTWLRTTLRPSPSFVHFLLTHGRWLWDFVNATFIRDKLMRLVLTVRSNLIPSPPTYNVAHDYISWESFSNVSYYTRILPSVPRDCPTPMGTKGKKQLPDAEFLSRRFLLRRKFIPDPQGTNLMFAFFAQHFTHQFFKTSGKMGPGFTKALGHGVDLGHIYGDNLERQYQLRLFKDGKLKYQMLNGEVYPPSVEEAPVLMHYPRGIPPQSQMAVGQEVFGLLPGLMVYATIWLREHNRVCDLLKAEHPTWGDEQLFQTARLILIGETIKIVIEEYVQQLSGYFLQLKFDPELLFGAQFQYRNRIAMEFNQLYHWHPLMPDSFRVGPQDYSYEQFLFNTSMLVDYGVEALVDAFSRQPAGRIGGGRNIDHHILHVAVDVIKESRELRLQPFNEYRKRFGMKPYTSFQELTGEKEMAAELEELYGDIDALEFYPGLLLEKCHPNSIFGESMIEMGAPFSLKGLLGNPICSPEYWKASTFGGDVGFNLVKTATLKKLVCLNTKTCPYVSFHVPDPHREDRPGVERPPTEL
Assay: Activity of inhibiting prostaglandin synthesis (prostaglandin E2 formed)
Type: biochemical
Conditions: 37° C., 5 minutes, pH 8.0, 50 μM arachidonic acid; dissolved as a sodium salt; read-out: ED50 (inhibition of prostaglandin synthesis)
pIC50: −log10 of the molar value.
recorded-endpoint: pIC50

compound=O=C(O)Cc1cccc2c(-c3ccc(Cl)cc3)nccc12 reported_value=6.09
compound="CCCCC1C(=O)N(c2ccccc2)N(c2ccccc2)C1=O [Phenylbutazone, reference compound]" reported_value=4.58

###

Test system: stomach mucosal membrane
Experiment: Ulcerogenic activity: gastric ulceration
Type: in vivo, male Wistar rats
Conditions: 10 mg/kg, p.o.; 4 h
As shown below, each of these molecules has a reported Gastric ulceration: bleeding at the mucosal membrane value.
recorded-endpoint: Gastric ulceration: bleeding at the mucosal membrane

molecule="CN(C)c1ccc(-c2nccc3c(CC(=O)O)cccc23)cc1 [D]" reported_value=0/6
molecule="Cc1ccc(-c2nccc3c(CC(=O)O)cccc23)cc1 [Compound E]" reported_value=0/5
molecule="O=C(O)Cc1cccc2c(-c3ccccc3)nccc12 [H, 1-phenylisoquinoline-5-acetic acid]" reported_value=1/15
molecule="CC(C(=O)O)c1cccc2c(-c3ccc(Cl)cc3)nccc12 (stereo not shown) [F]" reported_value=1/5
molecule="O=C(O)Cc1cccc2c(C3CCCCC3)nccc12 [Compound L, 1-cyclohexylisoquinoline-5-acetic acid]" reported_value=0/5
molecule="O=C(O)Cc1cccc2c(-c3ccc(Br)cc3)nccc12 [B]" reported_value=0/5
molecule="O=C(O)Cc1cccc2c(-c3ccc(Cl)cc3)nccc12 [A]" reported_value=0/10
